Biological target: HLA-B*48:01
Assay: IEDB peptide-MHC binding, purified MHC/direct/fluorescence; filed as Kd, often an IC50 or EC50 that approximates it; bounds were set here for any values at or beyond the usual limits of such assays
Settings: source organism: Yellow fever virus
pKd: −log10 of the molar value.

{"SEQ TEXT": "VNRWLFRHL", "pKd": "≤ 4.70"}

----------
Molecular target: HLA-A*80:01
Assay: IEDB peptide-MHC binding, purified MHC/direct/fluorescence; filed as Kd, often an IC50 or EC50 that approximates it; bounds were set here for any values at or beyond the usual limits of such assays
Conditions: source organism: Campylobacter jejuni

{"SEQ TEXT": "YWDQVTFFY", "UNIT ABBREV": "nM", "Kd": 56}

----------
Target: HLA-B*15:09
Assay: IEDB peptide-MHC binding, purified MHC/direct/fluorescence; filed as Kd, often an IC50 or EC50 that approximates it; bounds were set here for any values at or beyond the usual limits of such assays
Conditions: source organism: Influenza A virus (A/Taiwan/2/2006(H1N1))

{"SEQ TEXT": "RRKTNLYGF", "Kd": "≥ 20 µM"}

----------
Molecular target: HLA-A*02:01
Test: IEDB peptide-MHC binding, purified MHC/direct/fluorescence; filed as Kd, often an IC50 or EC50 that approximates it; bounds were set here for any values at or beyond the usual limits of such assays
Details: source organism: Influenza A virus (A/goose/Guangxi/1097/2004(H5N1))

{"SEQ TEXT": "KYTSGRQEK", "Kd": "≥ 20 µM"}

----------
Target: HLA-B*57:01
Assay: IEDB peptide-MHC binding, purified MHC/direct/fluorescence; filed as Kd, often an IC50 or EC50 that approximates it; bounds were set here for any values at or beyond the usual limits of such assays
Settings: source organism: Bacillus anthracis

{"SEQ TEXT": "VTECKLIYY", "Kd": "≥ 20 µM"}

----------
Target: HLA-B*83:01
Assay: IEDB peptide-MHC binding, purified MHC/competitive/fluorescence; filed as Kd, often an IC50 or EC50 that approximates it; bounds were set here for any values at or beyond the usual limits of such assays
Conditions: source organism: Mopeia Lassa virus reassortant 29
pKd: −log10 of the molar value.

{"SEQ TEXT": "RLKFSLSYK", "pKd": "≤ 5.30"}

----------
Reported Kd by item:
Biological target: HLA-A*01:01
Test: IEDB peptide-MHC binding, purified MHC/direct/fluorescence; filed as Kd, often an IC50 or EC50 that approximates it; bounds were set here for any values at or beyond the usual limits of such assays
Conditions: source organism: Mycobacterium tuberculosis
VALUE TYPE: Kd

{"SEQ TEXT": "ALYLLDGLR", "VALUE TYPE": "Kd", "READOUT VALUE": "≥ 20 µM"}
{"SEQ TEXT": "GPRGRHVVL", "VALUE TYPE": "Kd", "READOUT VALUE": "≥ 20 µM"}

----------
Target: HLA-B*48:01
Assay: IEDB peptide-MHC binding, purified MHC/direct/fluorescence; filed as Kd, often an IC50 or EC50 that approximates it; bounds were set here for any values at or beyond the usual limits of such assays
Conditions: source organism: Mycobacterium tuberculosis
pKd: −log10 of the molar value.
VALUE TYPE: pKd

{"SEQ TEXT": "GPRGRHVVL", "VALUE TYPE": "pKd", "READOUT VALUE": "≤ 4.70"}
{"SEQ TEXT": "TLLESFLFY", "VALUE TYPE": "pKd", "READOUT VALUE": "≤ 4.70"}
{"SEQ TEXT": "ALYLLDGLR", "VALUE TYPE": "pKd", "READOUT VALUE": "≤ 4.70"}

----------
Molecular target: HLA-A*32:01
Experiment: IEDB peptide-MHC binding, purified MHC/competitive/radioactivity; filed as Kd, often an IC50 or EC50 that approximates it; bounds were set here for any values at or beyond the usual limits of such assays
Conditions: source organism: Mammarenavirus whitewaterense

{"SEQ TEXT": "YVSSIFLHL", "Kd": "≥ 51 µM"}

----------
Molecular target: HLA-A*02:06
Assay: IEDB peptide-MHC binding, purified MHC/competitive/radioactivity; filed as Kd, often an IC50 or EC50 that approximates it; bounds were set here for any values at or beyond the usual limits of such assays
Details: source organism: SARS coronavirus Tor2
pKd: −log10 of the molar value.
Reported pKd by item:

{"SEQ TEXT": "YMLFTKFFYL", "pKd": 7.69}
{"SEQ TEXT": "HLDGEVLSL", "pKd": 6.80}
{"SEQ TEXT": "YLMCLSPLMA", "pKd": 8.89}
{"SEQ TEXT": "LMYKGLPWNV", "pKd": 7.43}
{"SEQ TEXT": "ITAIYVFCI", "pKd": 6.88}
{"SEQ TEXT": "LLDDFVEII", "pKd": 6.80}

----------
Target: HLA-B*46:01
Assay: IEDB peptide-MHC binding, purified MHC/direct/fluorescence; filed as Kd, often an IC50 or EC50 that approximates it; bounds were set here for any values at or beyond the usual limits of such assays
Conditions: source organism: Influenza A virus (A/swine/Korea/S190/2004(H9N2))

{"SEQ TEXT": "WIPKRNRSI", "Kd": "≥ 20 µM"}

----------
Target: HLA-A*11:01
Experiment: IEDB peptide-MHC binding, purified MHC/direct/fluorescence; filed as Kd, often an IC50 or EC50 that approximates it; bounds were set here for any values at or beyond the usual limits of such assays
Conditions: source organism: Influenza A virus (A/goose/Guangxi/1097/2004(H5N1))
pKd: −log10 of the molar value.

{"SEQ TEXT": "KYTSGRQEK", "TARGET": "HLA-A*11:01", "pKd": "≤ 4.70"}

----------
Reported pKd by item:
Molecular target: HLA-A*29:02
Experiment: IEDB peptide-MHC binding, purified MHC/direct/fluorescence; filed as Kd, often an IC50 or EC50 that approximates it; bounds were set here for any values at or beyond the usual limits of such assays
Settings: source organism: Zaire ebolavirus
pKd: −log10 of the molar value.
VALUE TYPE: pKd

{"SEQ TEXT": "FLYDRLAST", "READOUT VALUE": "≤ 4.70"}
{"SEQ TEXT": "ISSGETRSF", "READOUT VALUE": "≤ 4.70"}
{"SEQ TEXT": "VLSDLCNFL", "READOUT VALUE": "≤ 4.70"}

----------
Target: HLA-A*02:12
Test: IEDB peptide-MHC binding, purified MHC/direct/fluorescence; filed as Kd, often an IC50 or EC50 that approximates it; bounds were set here for any values at or beyond the usual limits of such assays
Conditions: source organism: Vibrio parahaemolyticus RIMD 2210633

{"SEQ TEXT": "DTWHGFKNM", "Kd": "≥ 20 µM"}

----------
Target: HLA-B*27:05
Test: IEDB peptide-MHC binding, purified MHC/direct/fluorescence; filed as Kd, often an IC50 or EC50 that approximates it; bounds were set here for any values at or beyond the usual limits of such assays
Conditions: source organism: Influenza A virus (A/SW/KS/13481-T/00(H1N2))
VALUE TYPE: Kd

{"SEQ TEXT": "HEKGINPNY", "VALUE TYPE": "Kd", "READOUT VALUE": "≥ 20 µM"}

----------
Molecular target: HLA-A*02:03
Assay: IEDB peptide-MHC binding, purified MHC/direct/fluorescence; filed as Kd, often an IC50 or EC50 that approximates it; bounds were set here for any values at or beyond the usual limits of such assays
Conditions: source organism: Orthohantavirus tulaense
pKd: −log10 of the molar value.

{"SEQ TEXT": "ILMARYMSK", "TARGET": "HLA-A*02:03", "pKd": "≤ 4.70"}

----------
Biological target: HLA-A*68:01
Assay: IEDB peptide-MHC binding, purified MHC/competitive/radioactivity; filed as Kd, often an IC50 or EC50 that approximates it; bounds were set here for any values at or beyond the usual limits of such assays
Conditions: source organism: Vaccinia virus WR

{"SEQ TEXT": "HAKYMVTDK", "CENSORING OPERATOR": "=", "Kd, nM": 180}
{"SEQ TEXT": "LLSIVVDINK", "CENSORING OPERATOR": "=", "Kd, nM": 110}
{"SEQ TEXT": "ILSKWHTSAR", "CENSORING OPERATOR": "=", "Kd, nM": 844}
{"SEQ TEXT": "TLISSDGAR", "CENSORING OPERATOR": "=", "Kd, nM": 5.13}
{"SEQ TEXT": "FSGKEPISDY", "CENSORING OPERATOR": "≥", "Kd, nM": 67000}
{"SEQ TEXT": "SIRPRVTKQY", "CENSORING OPERATOR": "=", "Kd, nM": 8010}
{"SEQ TEXT": "RMLFTSTNDK", "CENSORING OPERATOR": "=", "Kd, nM": 35.6}
{"SEQ TEXT": "VSVDAMIHK", "CENSORING OPERATOR": "=", "Kd, nM": 1450}
{"SEQ TEXT": "LAELLEMKY", "CENSORING OPERATOR": "≥", "Kd, nM": 77700}
{"SEQ TEXT": "VTAASPMLY", "CENSORING OPERATOR": "=", "Kd, nM": 861}
{"SEQ TEXT": "LSDIISAEK", "CENSORING OPERATOR": "=", "Kd, nM": 185}
{"SEQ TEXT": "VVKDDPDHYK", "CENSORING OPERATOR": "≥", "Kd, nM": 70200}
{"SEQ TEXT": "KSTQSVLCVK", "CENSORING OPERATOR": "=", "Kd, nM": 26.5}
{"SEQ TEXT": "HILHAYCGIK", "CENSORING OPERATOR": "=", "Kd, nM": 2740}
{"SEQ TEXT": "KSLNRQTVSR", "CENSORING OPERATOR": "=", "Kd, nM": 7000}
{"SEQ TEXT": "YVMNIERQDY", "CENSORING OPERATOR": "=", "Kd, nM": 189}
{"SEQ TEXT": "GLILFVLALY", "CENSORING OPERATOR": "=", "Kd, nM": 457}
{"SEQ TEXT": "KATTQIAPK", "CENSORING OPERATOR": "=", "Kd, nM": 7050}
{"SEQ TEXT": "TSEKYSKGY", "CENSORING OPERATOR": "≥", "Kd, nM": 77700}
{"SEQ TEXT": "KLMEEYLRR", "CENSORING OPERATOR": "=", "Kd, nM": 1910}
{"SEQ TEXT": "PLHILASNK", "CENSORING OPERATOR": "=", "Kd, nM": 11400}
{"SEQ TEXT": "KIPIYSHTER", "CENSORING OPERATOR": "=", "Kd, nM": 1530}
{"SEQ TEXT": "SSYIDFENTK", "CENSORING OPERATOR": "=", "Kd, nM": 23.5}
{"SEQ TEXT": "DITFLRPVLK", "CENSORING OPERATOR": "=", "Kd, nM": 42.3}
{"SEQ TEXT": "IINFTISMR", "CENSORING OPERATOR": "=", "Kd, nM": 3.79}
{"SEQ TEXT": "LPRPDTRHL", "CENSORING OPERATOR": "≥", "Kd, nM": 77700}
{"SEQ TEXT": "TLSERISSK", "CENSORING OPERATOR": "=", "Kd, nM": 48.3}
{"SEQ TEXT": "LACTDPSER", "CENSORING OPERATOR": "=", "Kd, nM": 173}
{"SEQ TEXT": "FIHMVRCCK", "CENSORING OPERATOR": "=", "Kd, nM": 6.32}
{"SEQ TEXT": "RVMANNVKK", "CENSORING OPERATOR": "=", "Kd, nM": 104}
{"SEQ TEXT": "SFSNTIQSYK", "CENSORING OPERATOR": "=", "Kd, nM": 177}
{"SEQ TEXT": "NSEYIESKAK", "CENSORING OPERATOR": "=", "Kd, nM": 4190}
{"SEQ TEXT": "QMREIITGNK", "CENSORING OPERATOR": "=", "Kd, nM": 12400}
{"SEQ TEXT": "RVAVNKSNK", "CENSORING OPERATOR": "=", "Kd, nM": 147}
{"SEQ TEXT": "ETIEILRNY", "CENSORING OPERATOR": "=", "Kd, nM": 14.6}
{"SEQ TEXT": "ILRNYLRLY", "CENSORING OPERATOR": "≥", "Kd, nM": 32200}
{"SEQ TEXT": "YSSMTSDSK", "CENSORING OPERATOR": "=", "Kd, nM": 2.38}
